tested.system: Tyrosine-protein phosphatase non-receptor type 1 (Homo sapiens) (UniProt P18031)
Sequence (P18031 whole entry): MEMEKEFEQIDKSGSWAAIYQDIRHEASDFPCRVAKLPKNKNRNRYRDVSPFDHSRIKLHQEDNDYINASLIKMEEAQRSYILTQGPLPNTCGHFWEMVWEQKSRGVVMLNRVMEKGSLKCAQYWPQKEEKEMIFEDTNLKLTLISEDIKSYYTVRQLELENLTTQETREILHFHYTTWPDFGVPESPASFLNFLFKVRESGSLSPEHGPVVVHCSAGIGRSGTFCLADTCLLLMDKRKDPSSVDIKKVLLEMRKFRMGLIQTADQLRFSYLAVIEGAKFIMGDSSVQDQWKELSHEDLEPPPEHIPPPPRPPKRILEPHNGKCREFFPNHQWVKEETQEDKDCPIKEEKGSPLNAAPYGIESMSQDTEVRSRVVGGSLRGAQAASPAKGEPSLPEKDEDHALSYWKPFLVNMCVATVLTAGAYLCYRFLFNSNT
test.name: Inhibition of human recombinant full length PTP1B expressed in Escherichia coli cells at 10 uM using pNPP as substrate preincubated with enzyme for 5 mins followed by incubation with substrate for 10 mins by spectrophotometry analysis relative to control
Each entry below lists one item and its recorded inhibition value.
Write the quantity with the unit trailing the number.

Ask: Short answer please: inhibition, Tyrosine-protein phosphatase non-receptor type 1 (Homo sapiens) (UniProt P18031), entry COc1ccc(-c2cc(=O)c3c(O)cc(O)cc3o2)cc1
Reply: 32%

Ask: Notebook entry, Tyrosine-protein phosphatase non-receptor type 1 (Homo sapiens) (UniProt P18031) assay: inhibition of COc1ccc(-c2cc(=O)c3c(O)cc(O)cc3o2)cc1O = ?
Reply: 28.3%

Ask: State its inhibition on Tyrosine-protein phosphatase non-receptor type 1 (Homo sapiens) (UniProt P18031): COc1ccc(-c2cc(=O)c3c(O)cc(O[C@@H]4O[C@H](CO)[C@@H](O)[C@H](O)[C@H]4O)cc3o2)cc1O
Reply: 29.8%

Ask: Short answer please: inhibition, Tyrosine-protein phosphatase non-receptor type 1 (Homo sapiens) (UniProt P18031), entry O=c1cc(-c2ccc(O)c(O)c2)oc2cc(O)cc(O)c12
Reply: 39.9%

Ask: Report inhibition for O=c1cc(-c2ccc(O)cc2)oc2cc(O)cc(O)c12 tested on Tyrosine-protein phosphatase non-receptor type 1 (Homo sapiens) (UniProt P18031).
Reply: 39.2%

Ask: Hello, I am looking for reported inhibition with Tyrosine-protein phosphatase non-receptor type 1 (Homo sapiens) (UniProt P18031) for COc1ccc(-c2cc(=O)c3c(O)cc(O[C@@H]4O[C@H](CO[C@@H]5O[C@@H](C)[C@H](O)[C@@H](O)[C@H]5O)[C@@H](O)[C@H](O)[C@H]4O)cc3o2)cc1O . Could you help?
Reply: 30.5%

---

test.name: Inhibition of baker's yeast alpha-glucosidase using p-nitrophenyl alpha-D-glucopyranoside as substrate measured after 30 mins by spectrophotometry analysis
Set-up: species or system Saccharomyces cerevisiae
endpoint.name: pIC50
Scale note: pIC50 = -log10(concentration in M).

C[C@H]1O[C@H](O[C@H]2[C@H](O)[C@@H](O)[C@@H](O[C@H]3[C@H](O)[C@@H](O)C(O)O[C@@H]3CO)O[C@@H]2CO)[C@H](O)[C@@H](O)[C@@H]1N[C@H]1C=C(CO)[C@@H](O)[C@H](O)[C@H]1O (stereo partly specified)	3.63
O=c1cc(-c2ccc(O)cc2)oc2cc(O)cc(O)c12	5.04

// moving on: another record for pIC50
Ask: Any idea what pIC50 was measured for O=c1cc(-c2ccc(O)c(O)c2)oc2cc(O)cc(O)c12 ?
Reply: 4.78

---

tested.system: Tyrosine-protein phosphatase non-receptor type 1 (Homo sapiens)
test.name: Inhibition of human recombinant full length PTP1B expressed in Escherichia coli cells at 5 uM using pNPP as substrate preincubated with enzyme for 5 mins followed by incubation with substrate for 10 mins by spectrophotometry analysis relative to control
Decide by inhibition: equal to or exceeding 30% means true (1), less means false (0).

# example entries with known answers
O=c1cc(-c2ccc(O)cc2)oc2cc(O)cc(O)c12	false (0)
O=c1cc(-c2ccc(O)c(O)c2)oc2cc(O)cc(O)c12	true (1)
COc1ccc(-c2cc(=O)c3c(O)cc(O)cc3o2)cc1	true (1)

Ask: Has COc1ccc(-c2cc(=O)c3c(O)cc(O[C@@H]4O[C@H](CO[C@@H]5O[C@@H](C)[C@H](O)[C@@H](O)[C@H]5O)[C@@H](O)[C@H](O)[C@H]4O)cc3o2)cc1O a recorded inhibition greater than or equal to 30%?
Reply: true (1)

Ask: # check: inhibition of COc1ccc(-c2cc(=O)c3c(O)cc(O[C@@H]4O[C@H](CO)[C@@H](O)[C@H](O)[C@H]4O)cc3o2)cc1O is greater than or equal to 30%
Reply: false (0)

Ask: // inclusive: inhibition at least 30%? input: COc1ccc(-c2cc(=O)c3c(O)cc(O)cc3o2)cc1O
Reply: false (0)

---

tested.system: Tyrosine-protein phosphatase non-receptor type 1 (Homo sapiens)
test.name: Inhibition of human recombinant full length PTP1B expressed in Escherichia coli cells at 1 uM using pNPP as substrate preincubated with enzyme for 5 mins followed by incubation with substrate for 10 mins by spectrophotometry analysis relative to control
endpoint.name: inhibition (%)
Your answer is read as %, so omit the unit and give the number.

# example entries with known answers
O=c1cc(-c2ccc(O)cc2)oc2cc(O)cc(O)c12	29.8
O=c1cc(-c2ccc(O)c(O)c2)oc2cc(O)cc(O)c12	19.8
COc1ccc(-c2cc(=O)c3c(O)cc(O)cc3o2)cc1O	22.8

Ask: Which inhibition is listed for COc1ccc(-c2cc(=O)c3c(O)cc(O)cc3o2)cc1 ?
Reply: 38.2

Ask: Quick one: inhibition of COc1ccc(-c2cc(=O)c3c(O)cc(O[C@@H]4O[C@H](CO)[C@@H](O)[C@H](O)[C@H]4O)cc3o2)cc1O ?
Reply: 27.7

Ask: Field request: inhibition | item: COc1ccc(-c2cc(=O)c3c(O)cc(O[C@@H]4O[C@H](CO[C@@H]5O[C@@H](C)[C@H](O)[C@@H](O)[C@H]5O)[C@@H](O)[C@H](O)[C@H]4O)cc3o2)cc1O
Reply: 36.3

---

Catalogue of pIC50 values
test.name: Inhibition of baker's yeast alpha-glucosidase using p-nitrophenyl alpha-D-glucopyranoside as substrate measured after 30 mins by spectrophotometry analysis
Set-up: species or system Saccharomyces cerevisiae
pIC50: −log10 of the molar value.

Example results:
COc1ccc(-c2cc(=O)c3c(O)cc(O[C@@H]4O[C@H](CO[C@@H]5O[C@@H](C)[C@H](O)[C@@H](O)[C@H]5O)[C@@H](O)[C@H](O)[C@H]4O)cc3o2)cc1O [DIOSMIN]	< 4.00
COc1ccc(-c2cc(=O)c3c(O)cc(O[C@@H]4O[C@H](CO)[C@@H](O)[C@H](O)[C@H]4O)cc3o2)cc1O	< 4.00

Now for a further compound.
Ask: For COc1ccc(-c2cc(=O)c3c(O)cc(O)cc3o2)cc1 [ACACETIN] , what is its reported pIC50?
Reply: < 4.00
